# TARGET_SYSTEM: T1, EsCas13d, nuclease-dead (Eubacterium siraeum, UniProt B0MS50, R295A;H300A;R849A;H854A)
# T1 sequence: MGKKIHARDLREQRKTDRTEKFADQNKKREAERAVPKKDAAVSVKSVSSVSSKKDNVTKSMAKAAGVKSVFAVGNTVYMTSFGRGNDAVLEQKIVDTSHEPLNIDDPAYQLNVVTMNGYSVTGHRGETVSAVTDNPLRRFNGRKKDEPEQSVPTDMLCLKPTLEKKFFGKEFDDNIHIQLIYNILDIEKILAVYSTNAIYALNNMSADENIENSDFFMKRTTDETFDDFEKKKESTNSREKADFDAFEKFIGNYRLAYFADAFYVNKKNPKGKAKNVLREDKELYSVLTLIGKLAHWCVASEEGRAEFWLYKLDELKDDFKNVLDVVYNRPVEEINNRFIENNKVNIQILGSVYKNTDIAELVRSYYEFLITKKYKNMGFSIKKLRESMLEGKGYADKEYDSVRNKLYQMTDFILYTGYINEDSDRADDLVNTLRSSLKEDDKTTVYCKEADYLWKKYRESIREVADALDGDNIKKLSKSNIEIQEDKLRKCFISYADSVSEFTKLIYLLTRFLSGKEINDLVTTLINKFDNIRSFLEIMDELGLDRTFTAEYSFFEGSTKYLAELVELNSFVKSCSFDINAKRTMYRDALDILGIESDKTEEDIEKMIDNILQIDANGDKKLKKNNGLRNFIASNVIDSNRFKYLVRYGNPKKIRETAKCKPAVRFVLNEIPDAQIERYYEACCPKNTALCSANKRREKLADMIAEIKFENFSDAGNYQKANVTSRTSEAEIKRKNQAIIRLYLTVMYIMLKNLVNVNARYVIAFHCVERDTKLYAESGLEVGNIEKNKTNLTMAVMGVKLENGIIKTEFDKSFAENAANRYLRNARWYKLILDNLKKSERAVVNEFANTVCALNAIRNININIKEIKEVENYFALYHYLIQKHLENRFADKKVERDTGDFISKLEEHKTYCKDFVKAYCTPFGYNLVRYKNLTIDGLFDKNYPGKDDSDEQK
# RUN_DESCRIPTION: crRNA (strand 1, pre-loaded); Mg2+; 40 mM Tris-HCl pH 7.5, 150 mM NaCl, 6 mM MgCl2, 1 mM DTT, 0.1% Tween-20, 0.2 mg/ml BSA; 25 C; 10 min per concentration, then washed
# MEASUREMENT_PARAMETERS: tags: His6-TwinStrep-SUMO cleaved; N-terminal SNAP kept (SNAP-Surface 488); label: 3' end held by stalled T7 RNA polymerase
TEST_READOUT: Kd (nM)
One number for each entry, in nM.

BINDER	Kd [nM]
target 1 insU 3' of 9,insG 3' of 6 (mixed) RNA 1: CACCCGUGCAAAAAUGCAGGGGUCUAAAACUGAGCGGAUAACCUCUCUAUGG RNA 2: GGGAAUGGAUCCACAUCUACGAAUUCGUACCAUAGAGAGGUUAUUCCGGCUCACCGAGAUCGGAAGAGCACACGU	12.1
target 1 A9U,U10C (mixed) RNA 1: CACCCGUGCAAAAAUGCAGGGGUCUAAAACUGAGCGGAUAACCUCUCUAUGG RNA 2: GGGAAUGGAUCCACAUCUACGAAUUCGUACCAUAGAGAGGUCUUCCGCUCACCGAGAUCGGAAGAGCACACGU	8.6
target 1 insC 3' of 13,insG 3' of 4 (mixed) RNA 1: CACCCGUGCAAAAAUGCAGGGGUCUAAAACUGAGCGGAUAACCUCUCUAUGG RNA 2: GGGAAUGGAUCCACAUCUACGAAUUCGUACCAUAGAGAGCGUUAUCCGCGUCACCGAGAUCGGAAGAGCACACGU	5.33

Now for the binder whose Kd we want.
Prompt: Read off the recorded Kd for target 1 insA 3' of 22,insC 3' of 12 (mixed) RNA 1: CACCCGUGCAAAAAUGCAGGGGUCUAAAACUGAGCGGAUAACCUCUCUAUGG RNA 2: GGGAAUGGAUCCACAUCUACGAAUUCGUACACAUAGAGAGGCUUAUCCGCUCACCGAGAUCGGAAGAGCACACGU
Response: 20.1
